# System: Tetrahymena pyriformis
# Protocol Notes: Toxicity in Tetrahymena pyriformis
# Run Conditions: in vivo
Measurement Name: pGI50
Lab note: record the figure alone, no unit after it.

Summary line: CCO [ALCOHOL] , Tetrahymena pyriformis, reported pGI50 = 1.9912

Summary line: CC(O)CCl (stereo not given) , Tetrahymena pyriformis, reported pGI50 = 1.2446

Summary line: CC(C)CO [ISOBUTANOL] , Tetrahymena pyriformis, reported pGI50 = 1.3724

Summary line: CCC(C)O (stereo not given) [BUTANOL] , Tetrahymena pyriformis, reported pGI50 = 1.542

Summary line: CCCCO [BUTYL ALCOHOL] , Tetrahymena pyriformis, reported pGI50 = 1.4306

Summary line: OCCCl [2-CHLOROETHANOL] , Tetrahymena pyriformis, reported pGI50 = 1.5343

Summary line: OCCCCl [3-Chloropropanol] , Tetrahymena pyriformis, reported pGI50 = 1.1622

Summary line: CCC(O)CC [3-PENTANOL] , Tetrahymena pyriformis, reported pGI50 = 1.2437

Summary line: CC(C)(C)O [TERT-BUTANOL] , Tetrahymena pyriformis, reported pGI50 = 1.7911

Summary line: CC(C)CCO [3-METHYLBUTANOL] , Tetrahymena pyriformis, reported pGI50 = 1.0359

Summary line: CC(C)O [ISOPROPYL ALCOHOL] , Tetrahymena pyriformis, reported pGI50 = 1.8819

Summary line: CCCO [PROPANOL] , Tetrahymena pyriformis, reported pGI50 = 1.7464

Summary line: CO [METHYL ALCOHOL] , Tetrahymena pyriformis, reported pGI50 = 2.6656

Summary line: CCCC(C)O (stereo not given) [2-PENTANOL] , Tetrahymena pyriformis, reported pGI50 = 1.1596

Summary line: CCC(C)(C)O [AMYLENE HYDRATE] , Tetrahymena pyriformis, reported pGI50 = 1.1729
